target: NAD-dependent protein deacylase sirtuin-6 (Homo sapiens, UniProt Q8N6T7); assay: Inhibition of human SIRT6 deacetylase activity using Arg-His-Lys-Lys(AC)-AMC as a substrate by fluorescence assay
Sequence (Q8N6T7 whole entry): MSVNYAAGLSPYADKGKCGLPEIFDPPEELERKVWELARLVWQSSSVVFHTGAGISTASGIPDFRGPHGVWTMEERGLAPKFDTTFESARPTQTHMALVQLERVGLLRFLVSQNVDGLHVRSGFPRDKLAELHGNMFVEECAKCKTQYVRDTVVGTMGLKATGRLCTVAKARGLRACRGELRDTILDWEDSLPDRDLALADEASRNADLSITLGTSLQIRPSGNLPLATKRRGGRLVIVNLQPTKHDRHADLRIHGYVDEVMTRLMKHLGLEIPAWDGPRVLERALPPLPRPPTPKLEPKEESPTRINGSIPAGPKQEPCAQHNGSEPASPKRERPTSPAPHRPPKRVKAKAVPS

| entry smiles | IC50 / µM |
| --- | --- |
| O=C1CCc2cc(S(=O)(=O)Nc3ccc(Oc4cccnc4)cc3)ccc2N1 | 270 |
| Cn1c(=O)c2cc(S(=O)(=O)Nc3ccc(Cc4ccncc4)cc3)ccc2n(C)c1=O | 49 |
| CC(=O)Nc1ccc(S(=O)(=O)Nc2ccc(Oc3cccnc3)cc2)cc1 | 297 |
| Cn1c(=O)sc2cc(S(=O)(=O)Nc3ccc(Oc4cccnc4)cc3)ccc21 | 77 |
| O=c1[nH]c(=O)c2cc(S(=O)(=O)Nc3ccccc3-c3ccccc3)ccc2[nH]1 | 137 |

Origin of the recorded values: ChEMBL document CHEMBL3621196
